Tested on: OVCAR-5 ovarian
assay-comment: NCI-60 one-dose screen, 48 h (100 = growth as untreated, 0 = no growth, -100 = all killed)
cond: 10 µM unless noted
About 83,000 compounds went through this panel and 20% of them were active in at least one assay; those are over-represented in the sample as a whole.
Field: growth. Provide a value for each of the compounds that follow.
Number only, in %; omit the unit.

Q. I'd like to know its growth. The compound in question is C/C(=N\NC(=O)CSc1nc2ccccc2c(=O)n1Cc1ccc(S(N)(=O)=O)cc1)c1ccc(F)cc1
A. 96.4

Q. Please do the same for CCOC(=O)CCN(CC(C)C)C(=S)Nc1ccccc1 as well.
A. 100

Q. What about this compound? O=C(Nc1ncc(Cc2cc(Cl)ccc2Cl)s1)c1cccs1
A. 73.9

Q. Field entry: CC(=O)Oc1ccc(/C=N/NC(N)=S)nc1
A. 110

Q. Please give the result for CCN(CC)CCCC(C)Nc1cc(O)cc2cccnc12 (stereo not given) too.
A. 105

Q. What do you get for N#Cc1cc(-c2nc3ccccc3s2)c(=O)n(NS(=O)(=O)c2ccccc2)c1N ?
A. 102

Q. Moving on to Cc1nn(-c2ccccc2)c(Cl)c1/C=C/C(=O)c1ccc(F)cc1
A. 97.4

Q. Now this one: CCCN1[C@@H]2CC[C@H]1/C(=C\c1ccc(OC)c(OC)c1)C(=O)/C2=C/c1ccc(OC)c(OC)c1
A. 78.2

Q. Also need COc1cccc(-c2nc3occn3c2-c2ccnc(NCCNS(=O)(=O)c3ccc(C(F)(F)F)cc3)n2)c1 , thanks.
A. 116

Q. Try CN1C(N2CCN(S(=O)(=O)c3ccccc3)CC2)=NS(=O)(=O)c2ccccc21 next.
A. 97.9

Q. Then what about the compound COc1cc(/C=C/C(=O)c2nc3cc(F)ccc3nc2C)cc(OC)c1OC ?
A. 89.7

Q. Also CCC(=O)Oc1ccc(/C(=C(\C)c2ccccc2)c2ccc(OCCN3CCCCC3)cc2)cc1 , if possible.
A. 90.9

Q. Queued: C=CCn1c(-c2ccc(-c3nc4ccc(C)cc4[nH]3)cc2)n[nH]c1=S
A. 101

Q. Consider next the compound CCOC(=O)C1=C(CCl)NC(=O)NC1c1ccc2c(c1)OCO2 (stereo not given) in the same way.
A. 24.6

Q. Similarly, O=c1[nH]nc(-c2ccccc2)c2sc3ncc(-c4ccc(Br)cc4)n3c12 ?
A. 90.4

Q. Same for COc1ccc2c(c1)C(=O)CC(c1ccccc1OC)O2 (stereo not given)
A. 108

Q. Note, next up: O=C(/C=C(O)/C=C/c1ccc(SC(F)(F)F)cc1)/C=C/c1ccc(SC(F)(F)F)cc1
A. 118

Q. CN1CCN(C(=O)[C@]23CCC(C)(C)C[C@H]2C2=CC[C@@H]4[C@@]5(C)C/C(=C/c6ccncc6)C(=O)C(C)(C)[C@@H]5CC[C@@]4(C)[C@]2(C)CC3)CC1 , same question.
A. 86.9

Q. Also need COc1cc(C2=NN(C(C)=O)C(c3cc(OC)c(OC)c(OC)c3)C2)ccc1O (stereo not given) , thanks.
A. 34

Q. Consider next the compound NC(=O)CSSCC(N)=O in the same way.
A. 105

Q. Same question for Cc1ccc(C(=O)/C(=C\c2ccc([N+](=O)[O-])cc2)S(=O)Cc2ccc(F)cc2)cc1 (stereo not given) please.
A. 37.3

Q. Now the compound CC1=C(C(=O)/C=C/c2ccc(N(C)C)cc2)C(c2ccccc2)NC(=S)N1 (stereo not given)
A. 102

Q. Cool, now N#C/C(=C\c1cccc(C#N)c1)c1ccccc1
A. 100

Q. // query: Oc1ccc(C(c2ccc(O)cc2)c2ccc(Br)cn2)cc1
A. 78.4

Q. Here is the next compound: Cn1cc(CC2CC(=O)N(c3ccccc3)C2=O)sc1=NC(=O)c1ccccc1 (stereo not given)
A. 95.2

###

Please provide measured growth for the entries that follow.
System: RPMI-8226 leukemia
assay-comment: NCI-60 one-dose screen, 48 h (100 = growth as untreated, 0 = no growth, -100 = all killed)
cond: 10 µM unless noted
About 83,000 compounds went through this panel and 20% of them were active in at least one assay; those are over-represented in the sample as a whole.
Numeric only. Scale: %

Q. Entry O=Cc1ccc(-c2cn3ccnc3c(-c3ccc4ncn(Cc5ccccc5)c4c3)n2)cc1 , system RPMI-8226 leukemia: what growth was measured?
A. 17.5

Q. Field entry: Cn1c(-c2c(N)n(CCCN3CCOCC3)c3nc(C#N)c(C#N)nc23)nc2ccccc21
A. 5.09

Q. Next entry: CC(Oc1ccc(C(=O)O)cc1C(F)(F)F)c1ccc(Oc2ccccc2)cn1 (stereo unspecified)
A. 99.9

Q. Then what about the compound C=C(C)[C@@H]1CC[C@]2(C(=O)N[C@H](CO)Cc3ccccc3)CC[C@]3(C)[C@H](CC[C@@H]4[C@@]5(C)CCCNC(C)(C)[C@@H]5CC[C@]43C)[C@@H]12 ?
A. -49.3

Q. Now consider CSc1nc2sc3cccc(Cl)c3n2c(=N)c1C#N .
A. 90.7

Q. Thanks! And OCc1cnccc1NCCCCOc1ccc(Oc2ccccc2)cc1 ?
A. 24.7

###

Please respond with reported growth for every item in the list.
Test system: OVCAR-4 ovarian
assay-comment: NCI-60 one-dose screen, 48 h (100 = growth as untreated, 0 = no growth, -100 = all killed)
cond: 10 µM unless noted
Compounds without any hit were thinned out: in the full panel of roughly 83,000, 20% have a hit.
Only the number, expressed in %, is required.

Q. Which growth value belongs to CC(=O)N1c2ccccc2NC2=C(C(=O)NC2(C)C)C1c1ccco1 (stereo not given) ?
A. 93.8

Q. And N#CC(C#N)=Cc1cc2ccccc2nc1Oc1ccc(C(F)(F)F)cc1 ?
A. 99.7

Q. Queued: COc1ccc(C(=O)c2nc3ccccc3n2CC(=O)c2ccc(F)cc2)cc1
A. 73.8

Q. Let us now turn to CCOC(=O)CC1CSC(N/N=C/c2ccc(-n3cccn3)cc2)=N1 (stereo not given)
A. 109

Q. What do you have for CCN(c1ccccc1)S(=O)(=O)c1cc([N+](=O)[O-])ccc1Cl ?
A. 25.1

Q. Next record, please: C=C(C)[C@@H]1CC[C@]2(C(=O)N[C@@H](Cc3ccccc3)C(=O)OC)CC[C@]3(C)[C@H](CC[C@@H]4[C@@]5(C)CCC(=O)C(C)(C)[C@@H]5CC[C@]43C)[C@@H]12
A. 73.5

Q. Next: NC(=O)Nc1ccc(-n2cnc3cc(-c4ccc(O)cc4)ccc32)cc1
A. 89

Q. Do the same for N#Cc1cc(-c2nc3ccccc3s2)c(=O)n(NS(=O)(=O)c2ccccc2)c1N please
A. 107

Q. Thanks! And CCOC(=O)Oc1c(OC)cc(C(=O)c2ccc(OC)c(OC(=O)CCl)c2OC)cc1OC ?
A. 79.8

Q. Item: Cc1cc(C)c(S(=O)(=O)Oc2ccccc2[N+](=O)[O-])c(C)c1
A. 42.9

###

Test system: SF-539 CNS
assay-comment: NCI-60 one-dose screen, 48 h
cond: 10 µM unless noted
Experimental: Cells are grown in 96 well plates and exposed to the test compound for 48 hours. Compounds are tested at a single concentration, which is 10^-5 M for most compounds. The reported endpoint is percent growth (GI% or GIPRCNT), where numbers from 0 - 100% represent growth inhibition, and numbers from -100% - 0 represent cell death. For example, a value of 40 represents 60% growth inhibition. A value of 0 means no net growth occurred over the course of the experiment. […]
About 83,000 compounds went through this panel and 20% of them were active in at least one assay; those are over-represented in the sample as a whole. The source made the active and inactive calls. How the source made its calls: active means growth percent below 10; inactive means the rest.
Choose the fitting class; nothing outside Y for active, N for inactive is accepted.

Q. Outcome logged for CC(=O)[C@@H]1CC[C@]2(C(N)=O)CC[C@]3(C)[C@H](CC[C@@H]4[C@@]5(C)CCCNC(C)(C)[C@@H]5CC[C@]43C)[C@@H]12 in this assay:
A. N

Q. Could you do the same for CC(C)(C)c1ccc(NS(=O)(=O)c2ccc3nc(NC(=O)c4cnccn4)[nH]c3c2)cc1 , please?
A. Y

Q. What do you have for CN1C(N2CCN(S(=O)(=O)c3ccccc3)CC2)=NS(=O)(=O)c2ccccc21 ?
A. N

###

Test system: T-47D breast
assay-comment: NCI-60 one-dose screen, 48 h
cond: 10 µM unless noted
This is part of a sample that, as a whole, favours compounds with a hit. Of some 83,000 tested, about 20% had one in any assay. Activity calls are given as the source filed them. How the source made its calls: active means growth percent below 10; inactive means the rest.
# output must be one of t = active, f = inactive

Q. I'd appreciate the recorded outcome for S=c1cc(S)c2cc(Br)ccc2[nH]1 from this test.
A. f

Q. Now the same for Cn1cc(CC2CC(=O)N(c3ccccc3)C2=O)sc1=NC(=O)c1ccccc1 (configuration not stated)
A. f

Q. Repeat with C[C@@H](Nc1ncnc2ccc(-c3cnc(N)nc3)cc12)c1ccc(F)cc1
A. f

Q. Same read-out for COc1cc(/C=N/NC(=O)c2cnn3c2NC(c2ccccc2)C3)ccc1OCc1ccccc1 (configuration not stated) ?
A. t

Q. What do you get for CSc1nc2sc3cccc(Cl)c3n2c(=N)c1C#N ?
A. f

Q. Now this one: COc1cc2nc(-c3ccc(C(F)(F)F)cc3)cc(OCCCN3CCOCC3)c2cc1OC
A. f

Q. Then what about the compound Cc1ccc(-c2nc3ccccn3c2/C=C2/C(=O)Nc3cc(Cl)ccc32)cc1 ?
A. f

Q. // next record NS(=O)(=O)c1ccc(CCN2C(=O)c3cc(Cl)c(Cl)cc3C2=O)cc1
A. f

Q. And the next one, CN1C(N2CCN(S(=O)(=O)c3ccccc3)CC2)=NS(=O)(=O)c2ccccc21 ?
A. f

Q. Repeat for the following compound: O=C1NN(C(=O)c2ccccc2)C(c2ccc(Cl)c(Cl)c2)=C/C1=C\c1ccc([N+](=O)[O-])cc1
A. f

Q. Same read-out for CCCOC(=O)N[C@H]1CCc2cc(OC)c(OC)c(OC)c2-c2ccc(SC)c(=O)cc21 ?
A. f

Q. Next compound: O=[N+]([O-])c1ccc(N=Nc2cc(S(=O)(=O)O)c3cccc(S(=O)(=O)O)c3c2O)cc1
A. f

Q. Record: Oc1ccc(C2c3ccccc3Oc3ccccc32)c2cccnc12
A. f

Q. How about this compound: NC1[C@H](c2c[nH]c3ccccc23)c2c([nH]c3ccccc23)[C@H]1c1c[nH]c2ccccc12 (some centres not stated)
A. f

Q. Then this compound: C=CC(=O)N[C@@H](/C=C/C(=O)OCC)Cc1ccc(-c2cc(Cl)cc(Cl)c2)cc1
A. t

Q. Follow-up entry: COC(=O)C(OC(C)=O)C(OC(C)=O)c1ccc(OC)c(OC)c1 (configuration not stated)
A. f

Q. What about this compound? Cn1c(N2NC(=O)C(N=Nc3ccc(S(N)(=O)=O)cc3)C2=O)nc(-c2ccco2)c(C#N)c1=O (configuration not stated)
A. f

Q. Try CCSCC1CC(O)(c2ccccc2)CC(c2ccc(F)cc2)O1 (configuration not stated) next.
A. t

Q. Please do the same for COc1ccc(C/C(=C(\C)c2ccc(OCCN3CCCC3)cc2)c2ccc(OCCN3CCCC3)cc2)cc1 as well.
A. f

Q. Query O=C(NCCNc1nccc(-c2c(-c3cccc(F)c3)nc3sccn23)n1)c1ccc(Cl)cc1 next
A. f

Q. Consider next the compound COc1ccc(C(=O)C2C(C#N)C(C#N)C3c4ccccc4C=CN23)cc1 (configuration not stated) in the same way.
A. f

Q. And the next one, COc1ccc(CNCCN2C(=O)c3ccc4c5c(ccc(c35)C2=O)C(=O)N(CCNCc2ccc(OC)c(OC)c2OC)C4=O)c(OC)c1OC ?
A. t

Q. Lookup COc1cccc2c1c1nc3cc(C)c(C)cc3nc1n2CCN(C)C
A. f

Q. Next entry: Cc1ccc(NS(=O)(=O)c2ccc(-c3cnc(C4CC4)o3)cc2)cc1C(F)(F)F
A. f

Q. Proceed to COc1cc(/C=C\c2cc(OC)c(OC)c(OC)c2)cc(NC(=O)/C=C/c2cc(OC)c(OC)c(OC)c2)c1OC
A. f

Q. Also need O=C(/C(=C\c1ccc([N+](=O)[O-])cc1)S(=O)Cc1ccc(F)cc1)c1ccc(F)cc1 (configuration not stated) , thanks.
A. f

Q. What about this compound? O=C(Nc1cccc(C(=O)N2CCc3ccc(Cl)cc32)c1)c1ccco1
A. f
